- Measured On: c-Met/cFms chimeric receptor in c-Met/cFms/NIH3T3 cells (Homo sapiens)
- Construct: The transmembrane/cytoplasmic domain fragment of c-Met (nucleotides 933 to 1390); the other entry of the earlier key: CSF1R (P07333, Macrophage colony-stimulating factor 1 receptor)
- Sequence (P08581 with tags, fused parts or gaps): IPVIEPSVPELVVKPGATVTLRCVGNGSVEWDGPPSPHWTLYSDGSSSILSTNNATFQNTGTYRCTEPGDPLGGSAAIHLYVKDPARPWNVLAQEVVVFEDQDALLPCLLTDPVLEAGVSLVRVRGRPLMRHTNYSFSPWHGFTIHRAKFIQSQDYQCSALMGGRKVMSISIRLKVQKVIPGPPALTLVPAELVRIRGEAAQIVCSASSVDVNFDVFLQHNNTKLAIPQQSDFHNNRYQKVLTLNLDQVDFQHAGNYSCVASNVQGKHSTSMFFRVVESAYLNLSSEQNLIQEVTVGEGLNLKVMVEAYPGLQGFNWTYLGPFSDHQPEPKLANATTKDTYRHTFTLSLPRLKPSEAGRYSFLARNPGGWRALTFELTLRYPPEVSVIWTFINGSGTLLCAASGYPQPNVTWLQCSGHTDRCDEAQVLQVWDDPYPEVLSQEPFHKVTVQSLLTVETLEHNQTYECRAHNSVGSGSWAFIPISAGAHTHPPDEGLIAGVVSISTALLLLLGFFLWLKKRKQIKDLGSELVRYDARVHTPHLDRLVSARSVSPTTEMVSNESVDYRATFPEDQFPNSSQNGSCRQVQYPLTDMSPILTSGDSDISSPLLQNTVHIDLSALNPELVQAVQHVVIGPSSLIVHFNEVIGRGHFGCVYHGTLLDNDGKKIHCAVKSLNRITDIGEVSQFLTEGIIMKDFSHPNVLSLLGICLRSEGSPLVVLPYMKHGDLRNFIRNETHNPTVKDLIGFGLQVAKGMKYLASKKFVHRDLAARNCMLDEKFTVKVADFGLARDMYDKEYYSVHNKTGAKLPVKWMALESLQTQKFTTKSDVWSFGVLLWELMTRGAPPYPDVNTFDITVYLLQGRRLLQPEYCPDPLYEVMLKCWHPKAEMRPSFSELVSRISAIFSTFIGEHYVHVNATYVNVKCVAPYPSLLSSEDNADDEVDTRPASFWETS
- Test Protocol: Cell-based assay for c-Met autophosphorylation (ELISA)
- Study Conditions: compounds 1 h at 37° C., M-CSF (600 ng/ml) stimulation 10 min
pIC50: −log10 of the molar value.
pIC50 overview

O=C(NCCN1CCNCC1)c1cc2c(Oc3ccc(NC(=O)C4(C(=O)Nc5ccc(F)cc5)CC4)cc3)ccnc2[nH]1: 5.50 to 6.00
O=C(Nc1ccc(F)cc1)C1(C(=O)Nc2ccc(Nc3ccnc4[nH]c(-c5ccccc5)cc34)cc2)CC1: 4.50 to 5.50
CS(=O)(=O)CCNC(=O)c1cc2c(Nc3ccc(NC(=O)C4(C(=O)Nc5ccc(F)cc5)CC4)cc3)ccnc2[nH]1: 4.50 to 5.50
COc1ccccc1NC(=O)c1cc2c(Oc3ccc(NC(=O)C4(C(=O)Nc5ccc(F)cc5)CC4)cc3)ccnc2[nH]1: 4.50 to 5.50

Reported pIC50 (c-Met/cFms chimeric receptor in c-Met/cFms/NIH3T3 cells (Homo sapiens)) for entry CN(C)Cc1cccc(NC(=O)c2cc3c(Oc4ccc(NC(=O)C5(C(=O)Nc6ccc(F)cc6)CC5)cc4)ccnc3[nH]2)c1 is 5.50 to 6.00

Reported pIC50 (c-Met/cFms chimeric receptor in c-Met/cFms/NIH3T3 cells (Homo sapiens)) for entry O=C(Nc1ccccc1)C1(C(=O)Nc2ccc(Nc3ccnc4[nH]ccc34)cc2)CC1 is 4.50 to 5.50

Reported pIC50 (c-Met/cFms chimeric receptor in c-Met/cFms/NIH3T3 cells (Homo sapiens)) for entry CN(C)c1ccc(CNC(=O)c2cc3c(Oc4ccc(NC(=O)C5(C(=O)Nc6ccc(F)cc6)CC5)cc4)ccnc3[nH]2)cc1 is 5.50 to 6.00

###

- Measured On: human Met Kinase (His6-GST fusion, aa 956-1390) (Homo sapiens)
- Construct: His6 (N); GST (Glutathione-S-Transferase) (N); made in house; host or cells: baculovirus expression system in Sf9 cells
- Sequence (P08581 956-1390): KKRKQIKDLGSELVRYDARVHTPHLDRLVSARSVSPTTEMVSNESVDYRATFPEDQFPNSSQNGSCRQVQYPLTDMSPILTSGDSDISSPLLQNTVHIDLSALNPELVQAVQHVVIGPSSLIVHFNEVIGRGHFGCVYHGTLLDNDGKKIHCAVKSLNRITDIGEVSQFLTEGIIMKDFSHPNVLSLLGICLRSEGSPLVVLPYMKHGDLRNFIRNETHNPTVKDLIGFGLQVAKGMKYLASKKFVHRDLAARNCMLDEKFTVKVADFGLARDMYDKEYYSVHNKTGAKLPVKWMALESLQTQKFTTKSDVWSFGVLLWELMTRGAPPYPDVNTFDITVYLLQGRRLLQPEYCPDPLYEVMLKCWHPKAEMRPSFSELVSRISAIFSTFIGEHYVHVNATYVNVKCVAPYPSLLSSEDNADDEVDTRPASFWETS
- Test Protocol: In vitro screen: kinase assay of purified Met kinase
- Type: biochemical
- Study Conditions: purified Met 1 nM, 10 μM ATP, 1 μM peptide substrate, 1 hour at room temperature; read-out: pIC50 values at the c-Met receptor (in vitro screen results) (converted)
Measurement Kind: IC50

Worked cases, answers included:
O=C(NCCO)c1cc2c(Oc3ccc(NC(=O)C4(C(=O)Nc5ccc(F)cc5)CC4)cc3)ccnc2[nH]1: < 10 nM
O=C(NCCc1c[nH]cn1)c1cc2c(Oc3ccc(NC(=O)C4(C(=O)Nc5ccc(F)cc5)CC4)cc3)ccnc2[nH]1: < 10 nM
CN(C)CCCNC(=O)c1cc2c(Oc3ccc(NC(=O)C4(C(=O)Nc5ccc(F)cc5)CC4)cc3)ccnc2[nH]1: < 10 nM
O=C(Nc1ccccc1)C1(C(=O)Nc2ccc(Nc3ccnc4[nH]ccc34)cc2)CC1: 100 to 1000 nM
CS(=O)(=O)CCNC(=O)c1cc2c(Oc3ccc(NC(=O)C4(C(=O)Nc5ccc(F)cc5)CC4)cc3)ccnc2[nH]1: < 10 nM
O=C(NCCN1CCOCC1)c1cc2c(Oc3ccc(NC(=O)C4(C(=O)Nc5ccc(F)cc5)CC4)cc3)ccnc2[nH]1: < 10 nM

NC(=O)CNC(=O)c1cc2c(Oc3ccc(NC(=O)C4(C(=O)Nc5ccc(F)cc5)CC4)cc3)ccnc2[nH]1 yielded IC50 of < 10 nM

O=C(Nc1ccc(F)cc1)C1(C(=O)Nc2ccc(Nc3ccnc4[nH]ccc34)cc2)CC1 yielded IC50 of 100 to 1000 nM

CN(C)Cc1cccc(NC(=O)c2cc3c(Oc4ccc(NC(=O)C5(C(=O)Nc6ccc(F)cc6)CC5)cc4)ccnc3[nH]2)c1 yielded IC50 of < 10 nM
